System: PC-3 PIP/flu tumor-bearing mice
Assay: Biodistribution studies in PC-3 PIP/flu tumor-bearing mice
Settings: 192 h p.i.
Entries and their PC-3 PIP Tumor

>  <COMPOUND>
O=C(O)CCC(NC(=O)NC(CCCCNC(=O)C(Cc1ccc2ccccc2c1)NC(=O)C1CCC(n2cc(CC(NC(=O)CN3CCN(CC(=O)O)CCN(CC(=O)O)CCN(CC(=O)O)CC3)C(=O)NC(CCCCNC(=O)CCCc3ccc(I)cc3)C(=O)O)nn2)CC1)C(=O)O)C(=O)O (centres unmarked) [^177Lu-PSMA-ALB-01, metal not drawn]

>  <TARGET_DESC>
PC-3 PIP/flu tumor-bearing mice

>  <PC-3 PIP Tumor>
75.6 ± 22.0 % IA/g

$$$$
>  <COMPOUND>
O=C(O)CCC(NC(=O)NC(CCCCNC(=O)C(Cc1ccc2ccccc2c1)NC(=O)C1CCC(CNC(=O)C(CCCCNC(=O)CN2CCN(CC(=O)O)CCN(CC(=O)O)CCN(CC(=O)O)CC2)NC(=O)CC(NC(=O)CC(NC(=O)CCCc2ccc(I)cc2)C(=O)O)C(=O)O)CC1)C(=O)O)C(=O)O (centres unmarked) [^177Lu-PSMA-ALB-05, metal not drawn]

>  <TARGET_DESC>
PC-3 PIP/flu tumor-bearing mice

>  <PC-3 PIP Tumor>
27.9 ± 3.24 % IA/g

$$$$
>  <COMPOUND>
O=C([O-])CN1CCN(CC(=O)[O-])CCN(CC(=O)NCC2CCC(C(=O)N[C@@H](Cc3ccc4ccccc4c3)C(=O)NCCCC[C@H](NC(=O)N[C@@H](CCC(=O)O)C(=O)O)C(=O)O)CC2)CCN(CC(=O)[O-])CC1.[177Lu+3] (some centres unmarked) [^177Lu-PSMA-617, reference compound]

>  <TARGET_DESC>
PC-3 PIP/flu tumor-bearing mice

>  <PC-3 PIP Tumor>
~20 % IA/g

$$$$
>  <COMPOUND>
O=C(O)CCC(NC(=O)NC(CCCCNC(=O)C(Cc1ccc2ccccc2c1)NC(=O)C1CCC(CNC(=O)C(CCCCNC(=O)CCCc2ccc(I)cc2)NC(=O)CN2CCN(CC(=O)O)CCN(CC(=O)O)CCN(CC(=O)O)CC2)CC1)C(=O)O)C(=O)O (centres unmarked) [^177Lu-PSMA-ALB-03, metal not drawn]

>  <TARGET_DESC>
PC-3 PIP/flu tumor-bearing mice

>  <PC-3 PIP Tumor>
58.9 ± 12.4 % IA/g

$$$$
>  <COMPOUND>
O=C(O)CCC(NC(=O)NC(CCCCNC(=O)C(Cc1ccc2ccccc2c1)NC(=O)C1CCC(CNC(=O)C(CCCCNC(=O)CN2CCN(CC(=O)O)CCN(CC(=O)O)CCN(CC(=O)O)CC2)NC(=O)CCCCCCC(=O)NC(CCCCNC(=O)CCCc2ccc(I)cc2)C(=O)O)CC1)C(=O)O)C(=O)O (centres unmarked) [^177Lu-PSMA-ALB-04, metal not drawn]

>  <TARGET_DESC>
PC-3 PIP/flu tumor-bearing mice

>  <PC-3 PIP Tumor>
57.6 ± 17.3 % IA/g

$$$$

* * *

Tested on: PC-3 PIP/flu tumor-bearing mice
Test: Biodistribution studies in PC-3 PIP/flu tumor-bearing mice
Settings: 4 h p.i.; PC-3 PIP tumor

>  <COMPOUND>
Cc1ccc(CCCC(=O)NC(CC(=O)NC(CC(=O)NC(CC(=O)NC(CCCCNC(=O)CN2CCN(CC(=O)O)CCN(CC(=O)O)CCN(CC(=O)O)CC2)C(=O)NCC2CCC(C(=O)NC(Cc3ccc4ccccc4c3)C(=O)NCCCCC(NC(=O)NC(CCC(=O)O)C(=O)O)C(=O)O)CC2)C(=O)O)C(=O)O)C(=O)O)cc1 (centres unmarked) [^177Lu-PSMA-ALB-08, metal not drawn]

>  <Tumor-to-kidney>
1.70 ± 0.22

$$$$
>  <COMPOUND>
O=C(O)CCC(NC(=O)NC(CCCCNC(=O)C(Cc1ccc2ccccc2c1)NC(=O)C1CCC(CNC(=O)C(CCCCNC(=O)CN2CCN(CC(=O)O)CCN(CC(=O)O)CCN(CC(=O)O)CC2)NC(=O)CC(NC(=O)CC(NC(=O)CCCc2ccc(I)cc2)C(=O)O)C(=O)O)CC1)C(=O)O)C(=O)O (centres unmarked) [^177Lu-PSMA-ALB-05, metal not drawn]

>  <Tumor-to-kidney>
1.42 ± 0.19

$$$$
>  <COMPOUND>
Cc1ccc(CCCC(=O)NCCCCC(NC(=O)CN2CCN(CC(=O)O)CCN(CC(=O)O)CCN(CC(=O)O)CC2)C(=O)NCC2CCC(C(=O)NC(Cc3ccc4ccccc4c3)C(=O)NCCCCC(NC(=O)NC(CCC(=O)O)C(=O)O)C(=O)O)CC2)cc1 (centres unmarked) [^177Lu-PSMA-ALB-06, metal not drawn]

>  <Tumor-to-kidney>
4.02 ± 0.25

$$$$
>  <COMPOUND>
Cc1ccc(CCCC(=O)NCCCC[C@H](NC(=O)CCC(C(=O)O)N2CCN(CC(=O)O)CCN(CC(=O)O)CC2)C(=O)NC[C@H]2CC[C@H](C(=O)N[C@H](Cc3ccc4ccccc4c3)C(=O)NCCCC[C@@H](NC(=O)N[C@H](CCC(=O)O)C(=O)O)C(=O)O)CC2)cc1 (some centres unmarked) [^64Cu-PSMA-ALB-89, metal not drawn]

>  <Tumor-to-kidney>
0.70 ± 0.04

$$$$
>  <COMPOUND>
O=C(O)CCC(NC(=O)NC(CCCCNC(=O)C(Cc1ccc2ccccc2c1)NC(=O)C1CCC(CNC(=O)C(CCCCNC(=O)CCCc2ccc(I)cc2)NC(=O)CN2CCN(CC(=O)O)CCN(CC(=O)O)CCN(CC(=O)O)CC2)CC1)C(=O)O)C(=O)O (centres unmarked) [^177Lu-PSMA-ALB-03, metal not drawn]

>  <Tumor-to-kidney>
0.83 ± 0.14

$$$$
>  <COMPOUND>
O=C(O)CCC(NC(=O)NC(CCCCNC(=O)C(Cc1ccc2ccccc2c1)NC(=O)C1CCC(n2cc(CC(NC(=O)CN3CCN(CC(=O)O)CCN(CC(=O)O)CCN(CC(=O)O)CC3)C(=O)NC(CCCCNC(=O)CCCc3ccc(I)cc3)C(=O)O)nn2)CC1)C(=O)O)C(=O)O (centres unmarked) [^177Lu-PSMA-ALB-01, metal not drawn]

>  <Tumor-to-kidney>
0.83 ± 0.03

$$$$
>  <COMPOUND>
O=C(O)CCC(NC(=O)NC(CCCCNC(=O)C(Cc1ccc2ccccc2c1)NC(=O)C1CCC(CNC(=O)C(CCCCNC(=O)CN2CCN(CC(=O)O)CCN(CC(=O)O)CCN(CC(=O)O)CC2)NC(=O)CC(NC(=O)CC(NC(=O)CC(NC(=O)CCCc2ccc(I)cc2)C(=O)O)C(=O)O)C(=O)O)CC1)C(=O)O)C(=O)O (centres unmarked) [^177Lu-PSMA-ALB-07, metal not drawn]

>  <Tumor-to-kidney>
0.88 ± 0.28

$$$$
>  <COMPOUND>
Cc1ccc(CCCC(=O)NCCCCC(NC(=O)CN2CCN(CC(=O)O)CCN(CC(=O)O)CCN(CC(=O)O)CC2)C(=O)NCC2CCC(C(=O)NC(Cc3ccc4ccccc4c3)C(=O)NCCCCC(NC(=O)NC(CCC(=O)O)C(=O)O)C(=O)O)CC2)cc1 (centres unmarked) [44Sc-PSMA-ALB-06, metal not drawn]

>  <Tumor-to-kidney>
2.14 ± 0.15

$$$$

* * *

Test system: PC-3 PIP/flu tumor-bearing mice
Assay: Biodistribution studies in PC-3 PIP/flu tumor-bearing mice
Conditions: 24 h p.i.
Some compounds, each annotated with its measured Intestines.
READOUT_NAME: Intestines (% IA/g)

>  <COMPOUND>
O=C(O)CCC(NC(=O)NC(CCCCNC(=O)C(Cc1ccc2ccccc2c1)NC(=O)C1CCC(CNC(=O)C(CCCCNC(=O)CN2CCN(CC(=O)O)CCN(CC(=O)O)CCN(CC(=O)O)CC2)NC(=O)CC(NC(=O)CC(NC(=O)CC(NC(=O)CCCc2ccc(I)cc2)C(=O)O)C(=O)O)C(=O)O)CC1)C(=O)O)C(=O)O (stereo not drawn) [^177Lu-PSMA-ALB-07, metal not drawn]

>  <TARGET_DESC>
PC-3 PIP/flu tumor-bearing mice

>  <UNIT_ANNOTATION>
% IA/g

>  <EXPERIMENTAL_VALUE>
0.20

$$$$
>  <COMPOUND>
O=C(O)CCC(NC(=O)NC(CCCCNC(=O)C(Cc1ccc2ccccc2c1)NC(=O)C1CCC(CNC(=O)C(CCCCNC(=O)CN2CCN(CC(=O)O)CCN(CC(=O)O)CCN(CC(=O)O)CC2)NC(=O)CC(NC(=O)CC(NC(=O)CCCc2ccc(I)cc2)C(=O)O)C(=O)O)CC1)C(=O)O)C(=O)O (stereo not drawn) [^177Lu-PSMA-ALB-05, metal not drawn]

>  <TARGET_DESC>
PC-3 PIP/flu tumor-bearing mice

>  <UNIT_ANNOTATION>
% IA/g

>  <EXPERIMENTAL_VALUE>
0.28

$$$$
>  <COMPOUND>
O=C(O)CCC(NC(=O)NC(CCCCNC(=O)C(Cc1ccc2ccccc2c1)NC(=O)C1CCC(CNC(=O)C(CCCCNC(=O)CN2CCN(CC(=O)O)CCN(CC(=O)O)CCN(CC(=O)O)CC2)NC(=O)CCCCCCC(=O)NC(CCCCNC(=O)CCCc2ccc(I)cc2)C(=O)O)CC1)C(=O)O)C(=O)O (stereo not drawn) [^177Lu-PSMA-ALB-04, metal not drawn]

>  <TARGET_DESC>
PC-3 PIP/flu tumor-bearing mice

>  <UNIT_ANNOTATION>
% IA/g

>  <EXPERIMENTAL_VALUE>
8.13

$$$$
